Assay: Spectral and photophysical characterization of free dyes in T.E. buffer
Type: physicochemical
Conditions: free dye in T.E. buffer
Experimental: After the synthesis of the styrene dyes, their photophysical properties were evaluated. The spectral and photophysical properties (absorption, emission, molar absorptivity (ε), fluorescence quantum yield (ΦDF), and fluorescence enhancement) of probes 1a-1d were measured in DMSO and T.E. buffer (Tris-HCl, 1 mM EDTA, pH=7.5). FIG. 2D provides measurements of the fluorescent enhancement for several of the fluorescent probes. […]
Would you kindly list fluorescence quantum yield of free dye for each of these compounds?
Enter your answer as a number in %; do not include the unit.

In: Dear colleague, I am looking for the recorded fluorescence quantum yield of free dye of the following compound: C[n+]1ccc(/C=C/c2cc3ccccc3[nH]2)cc1.[I-]
Out: 0.12

In: Next compound: C[n+]1ccc(/C=C/c2ccn3ccccc23)cc1.[I-]
Out: 0.38

In: Next compound: C[n+]1ccc(/C=C/c2ccc3ccccn23)cc1.[I-]
Out: 0.10

In: Next compound: Cn1c(/C=C/c2cc[n+](C)cc2)cc2ccccc21.[I-]
Out: 0.12

Reference for the values: patent US20260265525A1
